Assign pIC50 to each entry below.
# TARGET: UniProt:Q9H0K1
# ASSAY: SIK2 Enzymatic Assay Version 2 (High ATP)
# Assay type: biochemical
# CONDITION PARAMETERS: 3 mM ATP and 200 μM HDAC5tide final, ADP-Glo Max luminescence
In textbook form, pIC50 equals minus log to base ten of the concentration in mol/L.

input: What pIC50 appears in the records for this molecule with UniProt:Q9H0K1? C[C@@H]1C[C@H]1C(=O)Nc1cc2cc(-c3c(OC[C@H]4CCN4C)cnn3C)ccn2n1
output: 8.77

input: What pIC50 appears in the records for this molecule with UniProt:Q9H0K1? Cc1onc(OC[C@]23CN[C@H](CO2)C3)c1-c1ccn2nc(NC(=O)C3CC3)cc2c1
output: 8.01

input: What pIC50 appears in the records for this molecule with UniProt:Q9H0K1? Cc1cncc(Nc2cc3cc(-c4c(OC[C@H]5CCN5C)cnn4C)ccn3n2)n1
output: 8.60

input: What pIC50 appears in the records for this molecule with UniProt:Q9H0K1? C[C@@H]1C[C@H](Oc2cnn(C)c2-c2ccn3nc(NC(=O)C4CC4)cc3c2)CN1C
output: 7.18

input: What pIC50 appears in the records for this molecule with UniProt:Q9H0K1? Cc1cncc(Nc2cc3cc(-c4c(OC[C@H]5CCN5)cnn4C)ccn3n2)n1
output: 7.62

input: What pIC50 appears in the records for this molecule with UniProt:Q9H0K1? Cn1ncc(CO[C@H]2CCNC2)c1-c1ccn2nc(NC(=O)C3CC3)cc2c1
output: 7.28

input: What pIC50 appears in the records for this molecule with UniProt:Q9H0K1? Cc1cc(Nc2cc3cc(-c4c(OC[C@H]5CCN5C)noc4C)ccn3n2)nc(C)n1
output: 8.19

input: What pIC50 appears in the records for this molecule with UniProt:Q9H0K1? C[C@H]1C[C@H](Oc2cnn(C)c2-c2ccn3nc(NC(=O)C4CC4)cc3c2)CN1
output: 7.28

input: What pIC50 appears in the records for this molecule with UniProt:Q9H0K1? Cc1onc(OC[C@H]2C[C@H](N)C2)c1-c1ccn2nc(NC(=O)C3CC3)cc2c1
output: 7.07

input: What pIC50 appears in the records for this molecule with UniProt:Q9H0K1? Cn1ncc(OC[C@H]2CCN2CCF)c1-c1ccn2nc(NC(=O)C3CC3)cc2c1
output: 8.46

input: What pIC50 appears in the records for this molecule with UniProt:Q9H0K1? CCN1CC[C@@H]1COc1cnn(C)c1-c1ccn2nc(Nc3cc(C)c(C)nn3)cc2c1
output: 9.00

input: What pIC50 appears in the records for this molecule with UniProt:Q9H0K1? Cc1onc(O[C@H]2CN[C@H]3CCCO[C@H]32)c1-c1ccn2nc(NC(=O)C3CC3)cc2c1 (single isomer, unassigned)
output: 7.79

input: What pIC50 appears in the records for this molecule with UniProt:Q9H0K1? Cc1snc(OC[C@H]2CN(C)CCO2)c1-c1ccn2nc(NC(=O)C3CC3)cc2c1
output: 7.23

input: What pIC50 appears in the records for this molecule with UniProt:Q9H0K1? COC1(COc2noc(C)c2-c2ccn3nc(Nc4cc(C)nc(C)n4)cc3c2)CNC1
output: 8.28

input: What pIC50 appears in the records for this molecule with UniProt:Q9H0K1? CO[C@H]1CNC[C@H]1Oc1cnn(C(F)F)c1-c1ccn2nc(Nc3cc(C)nc(C)n3)cc2c1
output: 8.17

====

Assign pIC50 to each entry below.
# TARGET: SIK2 (Homo sapiens (Human))
# ASSAY: SIK2 Enzymatic Assay Version 2 (High ATP)
# Type: biochemical
# CONDITION PARAMETERS: 3 mM ATP and 200 μM HDAC5tide final, ADP-Glo Max luminescence
# Method: All steps were performed at room temperature. Compounds were pre-plated onto an assay plate using an Echo acoustic dispenser (Labcyte, […] or […]) at 80 nL per well. […] The plate was then read on the Pherastar (BMG Labtech) using a luminescence read. […]
In textbook form, pIC50 equals minus log to base ten of the concentration in mol/L.

input: Which pIC50 value is on record for CCN1CC[C@@H]1COc1cnn(C(F)F)c1-c1ccn2nc(Nc3cnn(C)c3)cc2c1 ?
output: 7.77

input: Which pIC50 value is on record for Cc1onc(O[C@@H]2CCNC3(CCC3)C2)c1-c1ccn2nc(NC(=O)C3CC3)cc2c1 (single isomer, unassigned) ?
output: 7.31

input: Which pIC50 value is on record for CCN1CC[C@@H]1COc1cnn(C)c1-c1ccc2nc(Nc3cc(C)nc(C)n3)cn2c1 ?
output: 8.51

input: Which pIC50 value is on record for CN1CC[C@@H]1COc1cnn(C)c1-c1ccn2nc(Nc3ccc(C4CC4)nn3)cc2c1 ?
output: 8.59

====

# TARGET: SIK2 (Homo sapiens (Human))
# ASSAY: SIK2 Enzymatic Assay Version 2 (High ATP)
# Format: biochemical
# CONDITION PARAMETERS: 3 mM ATP and 200 μM HDAC5tide final, ADP-Glo Max luminescence
Assign pIC50 to each entry below.
In textbook form, pIC50 equals minus log to base ten of the concentration in mol/L.

input: Which pIC50 value is on record for COCc1cc(Nc2cc3cc(-c4c(O[C@H]5CCN(C)C5)cnn4C)ccn3n2)ncn1 [Example 461] ?
output: 7.14

input: Which pIC50 value is on record for CCN1CC[C@@H]1COc1cnn(C)c1-c1ccn2nc(Nc3ncc(F)cn3)cc2c1 [Example 176] ?
output: 7.14

input: Which pIC50 value is on record for CC(C)c1cc(Nc2cc3cc(-c4c(O[C@H]5CCN(C)C5)cnn4C)ccn3n2)ncn1 [Example 271] ?
output: 7.39

input: Which pIC50 value is on record for CN1CC[C@H](Oc2cnn(C)c2-c2ccn3nc(Nc4cc(C(F)(F)F)ccn4)cc3c2)C1 [Example 340] ?
output: 7.26

input: Which pIC50 value is on record for CCN1CC[C@H]1COc1cnn(C)c1-c1ccn2nc(NC(=O)C3CC3)cc2c1 [Example 47] ?
output: 7.06

input: Which pIC50 value is on record for CN1C[C@H](COc2cnn(C)c2-c2ccn3nc(NC(=O)C4CC4)cc3c2)[C@@H](O)C1 [Example 424] ?
output: 7.02

input: Which pIC50 value is on record for Cc1onc(OC[C@@H]2CCN2C)c1-c1ccn2nc(NC(=O)C3CC3)cc2c1 [Example 498] ?
output: 6.63

input: Which pIC50 value is on record for Cc1cnnc(Nc2cc3cc(-c4c(OC[C@H]5CCN5C)cnn4C)ccn3n2)c1 [Example 141] ?
output: 9.00

input: Which pIC50 value is on record for CO[C@@H]1CN(C)C[C@@H]1Oc1cnn(C)c1-c1ccn2nc(NC(=O)C3CC3)cc2c1 (racemic) [Example 409] ?
output: 6.77

input: Which pIC50 value is on record for Cc1cnc(Nc2cc3cc(-c4c(CO[C@@H]5CN(C)C[C@@H]5C)cnn4C)ccn3n2)cn1 (relative stereo) [Example 380] ?
output: 8.51

input: Which pIC50 value is on record for Cn1ncc(OC[C@H]2CCN2C2CC2)c1-c1ccn2nc(NC(=O)C3CC3)cc2c1 [Example 347] ?
output: 7.17

input: Which pIC50 value is on record for Cc1cnc(Nc2cc3cc(-c4c(CO[C@H]5CN(C)C[C@@H]5C)cnn4C)ccn3n2)cn1 (stereo in doubt) [Example 372] ?
output: 7.61

input: Which pIC50 value is on record for CCc1cc(Nc2cc3cc(-c4c(OC[C@@H]5CCN5C)cnn4C)ccn3n2)nc(C)n1 [Example 137] ?
output: 7.77

input: Which pIC50 value is on record for CCN1CCC[C@H]1COc1cnn(C)c1-c1ccn2nc(NC(=O)C3CC3)cc2c1 [Example 420] ?
output: 6.77

input: Which pIC50 value is on record for CN1CC[C@H](OCc2cnn(C)c2-c2ccn3nc(NC(=O)C4CC4)cc3c2)C1 [Example 464] ?
output: 7.08

====

Assign log10 IC50 to each entry below.
# TARGET: SIK2 (Homo sapiens (Human), UniProt Q9H0K1)
# Sequence (Q9H0K1 whole entry, species assumed): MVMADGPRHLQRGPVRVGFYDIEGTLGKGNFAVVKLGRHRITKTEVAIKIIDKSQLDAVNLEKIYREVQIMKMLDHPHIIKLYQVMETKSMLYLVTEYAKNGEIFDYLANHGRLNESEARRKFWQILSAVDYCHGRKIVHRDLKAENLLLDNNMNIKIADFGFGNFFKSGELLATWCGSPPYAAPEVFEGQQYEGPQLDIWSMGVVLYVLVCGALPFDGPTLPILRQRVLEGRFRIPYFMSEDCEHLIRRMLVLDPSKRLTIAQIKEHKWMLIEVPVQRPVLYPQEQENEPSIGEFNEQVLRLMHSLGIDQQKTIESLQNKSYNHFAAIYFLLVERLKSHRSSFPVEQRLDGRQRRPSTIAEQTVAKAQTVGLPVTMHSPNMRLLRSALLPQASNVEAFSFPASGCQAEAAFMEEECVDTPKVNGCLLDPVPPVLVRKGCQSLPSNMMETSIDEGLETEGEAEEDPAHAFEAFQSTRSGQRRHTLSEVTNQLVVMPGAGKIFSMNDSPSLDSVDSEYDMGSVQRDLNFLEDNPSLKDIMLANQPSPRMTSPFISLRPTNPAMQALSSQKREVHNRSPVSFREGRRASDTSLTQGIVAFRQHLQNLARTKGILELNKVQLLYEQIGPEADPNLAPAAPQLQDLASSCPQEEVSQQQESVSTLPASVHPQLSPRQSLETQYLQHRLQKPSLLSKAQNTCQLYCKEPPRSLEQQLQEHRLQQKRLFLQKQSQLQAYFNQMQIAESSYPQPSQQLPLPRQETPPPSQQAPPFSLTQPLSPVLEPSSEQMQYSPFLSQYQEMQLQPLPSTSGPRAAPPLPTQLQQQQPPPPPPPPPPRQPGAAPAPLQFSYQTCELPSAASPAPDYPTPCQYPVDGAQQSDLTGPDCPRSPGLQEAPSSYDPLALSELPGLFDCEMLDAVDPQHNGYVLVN
# ASSAY: SIK2 Enzymatic Assay Version 2 (High ATP)
# Type: biochemical
# CONDITION PARAMETERS: 3 mM ATP and 200 μM HDAC5tide final, ADP-Glo Max luminescence
Note: values are log10 of IC50 expressed in nM.

input: Which log10 IC50 value is on record for CCN1CC[C@@H]1COc1cnn(C(F)F)c1-c1ccn2nc(Nc3ccc(C)nn3)cc2c1 [Example 480] ?
output: 1.00

input: Which log10 IC50 value is on record for CCN1CC[C@@H]1COc1cnn(C)c1-c1ccn2nc(Nc3cc(C)nc(C(C)(C)C)n3)cc2c1 [Example 177] ?
output: 0.18

input: Which log10 IC50 value is on record for Cc1cnc(Nc2cc3cc(-c4c(COC5CN(C)CC5C)cnn4C)ccn3n2)cn1 (racemic) [Example 376] ?
output: 0.63

input: Which log10 IC50 value is on record for Cc1cc(Nc2cc3cc(-c4c(OC[C@H]5CCN5C)cnn4C)ccn3n2)ncn1 [Example 55] ?
output: 0.11

input: Which log10 IC50 value is on record for Cc1cc(Nc2cc3cc(-c4c(OC[C@H]5CCN5)cnn4C(F)F)ccn3n2)nc(C)n1 [Example 260] ?
output: 1.58

input: Which log10 IC50 value is on record for Cc1onc(OCC2(F)CN(C)C2)c1-c1ccn2nc(NC(=O)C3CC3)cc2c1 [Example 84] ?
output: 2.31

input: Which log10 IC50 value is on record for Cc1cc(Nc2cc3cc(-c4c(CO[C@H]5CN(C)C[C@H]5C)cnn4C)ccn3n2)nc(C)n1 [Example 367] ?
output: 0.46

input: Which log10 IC50 value is on record for [2H]C([2H])([2H])N1CC[C@H](Oc2noc(C)c2-c2ccn3nc(NC(=O)C4CC4)cc3c2)C1 [Example 384] ?
output: 2.21

input: Which log10 IC50 value is on record for CN1CC[C@@H](Oc2cnn(C)c2-c2ccn3nc(NC(=O)C4CC4)cc3c2)C1 [Example 488] ?
output: 2.63

input: Which log10 IC50 value is on record for Cn1ncc(OC[C@H]2CCN2)c1-c1ccn2nc(NC(=O)C3CC3)cc2c1 [Example 346] ?
output: 1.77

input: Which log10 IC50 value is on record for COC[C@@H]1C[C@H](Oc2noc(C)c2-c2ccn3nc(Nc4cc(C)c(C)nn4)cc3c2)CN1C [Example 391] ?
output: 1.97

input: Which log10 IC50 value is on record for COC1(COc2noc(C)c2-c2ccn3nc(NC(=O)C4CC4)cc3c2)CNC1 [Example 76] ?
output: 1.09

input: Which log10 IC50 value is on record for CNC(=O)c1cnc(Nc2cc3cc(-c4c(OC[C@H]5CCN5C)cnn4C)ccn3n2)cn1 [Example 133] ?
output: 0.85

input: Which log10 IC50 value is on record for Cn1ncc(OCC2(N)CCC2)c1-c1ccn2nc(NC(=O)C3CC3)cc2c1 [Example 231] ?
output: 1.67

input: Which log10 IC50 value is on record for CN[C@H](COc1noc(C)c1-c1ccn2nc(NC(=O)C3CC3)cc2c1)c1ccccn1 [Example 224] ?
output: 1.33

input: Which log10 IC50 value is on record for Cc1cc(Nc2cc3cc(-c4c(OC[C@H]5C[C@H](C)CN5)cnn4C)ccn3n2)nc(C)n1 [Example 446] ?
output: 2.05

Taken from patent US20240174662A1.
